These data points were gathered from the supplement of paper PMC11246515.

This listing pairs sequences with measured total protein half-life in vivo.
Assay: total protein half-life in vivo (active degradation + dilution); higher = more stable protein
Details: wild type E. coli NCM3722; growth: P-lim chemostat; doubling time 6 h
Kindly provide the numeric value in h only, without the unit symbol.

sequence | unit-name | total protein half-life in vivo
MTTKKADYIWFNGEMVRWEDAKVHVMSHALHYGTSVFEGIRCYDSHKGPVVFRHREHMQRLHDSAKIYRFPVSQSIDELMEACRDVIRKNNLTSAYIRPLIFVGDVGMGVNPPAGYSTDVIIAAFPWGAYLGAEALEQGIDAMVSSWNRAAPNTIPTAAKAGGNYLSSLLVGSEARRHGYQEGIALDVNGYISEGAGENLFEVKDGVLFTPPFTSSALPGITRDAIIKLAKELGIEVREQVLSRESLYLADEVFMSGTAAEITPVRSVDGIQVGEGRCGPVTKRIQQAFFGLFTGETEDKWGWLDQVNQ [P0AB80] | h | 5.65

Okay, next one:
Q: Which total protein half-life in vivo value belongs to MIISAASDYRAAAQRILPPFLFHYMDGGAYSEYTLRRNVEDLSEVALRQRILKNMSDLSLETTLFNEKLSMPVALAPVGLCGMYARRGEVQAAKAADAHGIPFTLSTVSVCPIEEVAPAIKRPMWFQLYVLRDRGFMRNALERAKAAGCSTLVFTVDMPTPGARYRDAHSGMSGPNAAMRRYLQAVTHPQWAWDVGLNGRPHDLGNISAYLGKPTGLEDYIGWLGNNFDPSISWKDLEWIRDFWDGPMVIKGILDPEDARDAVRFGADGIVVSNHGGRQLDGVLSSARALPAIADAVKGDIAILADSGIRNGLDVVRMIALGADTVLLGRAFLYALATAGQAGVANLLNLIEKEMKVAMTLTGAKSISEITQDSLVQGLGKELPAALAPMAKGNAA ?
A: 3.28

----------
Test: total protein half-life in vivo (active degradation + dilution); higher = more stable protein
Settings: wild type E. coli NCM3722; growth: C-lim chemostat; doubling time 12 h
property-measured: total protein half-life in vivo
Answer shape: numeric part, then the unit.

sequence | total protein half-life in vivo
MKTAYIAKQRQISFVKSHFSRQLEERLGLIEVQAPILSRVGDGTQDNLSGCEKAVQVKVKALPDAQFEVVHSLAKWKRQTLGQHDFSAGEGLYTHMKALRPDEDRLSPLHSVYVDQWDWERVMGDGERQFSTLKSTVEAIWAGIKATEAAVSEEFGLAPFLPDQIHFVHSQELLSRYPDLDAKGRERAIAKDLGAVFLVGIGGKLSDGHRHDVRAPDYDDWSTPSELGHAGLNGDILVWNPVLEDAFELSSMGIRVDADTLKHQLALTGDEDRLELEWHQALLRGEMPQTIGGGIGQSRLTMLLLQLPHIGQVQCGVWPAAVRESVPSLL | 5.26 h
MKNIVPDYRLDMVGEPCPYPAVATLEAMPQLKKGEILEVVSDCPQSINNIPLDARNHGYTVLDIQQDGPTIRYLIQK [P0AA31] | 6.03 h

Q: Dear colleague, I am looking for the recorded total protein half-life in vivo of the following sequence: MALLNVDKLSVHFGDESAPFRAVDRISYSVKQGEVVGIVGESGSGKSVSSLAIMGLIDYPGRVMAEKLEFNGQDLQRISEKERRNLVGAEVAMIFQDPMTSLNPCYTVGFQIMEAIKVHQGGNKSTRRQRAIDLLNQVGIPDPASRLDVYPHQLSGGMSQRVMIAMAIACRPKLLIADEPTTALDVTIQAQIIELLLELQQKENMALVLITHDLALVAEAAHKIIVMYAGQVVETGDAHAIFHAPRHPYTQALLRALPEFAQDKERLASLPGVVPGKYDRPNGCLLNPRCPYATDRCRAEEPALNMLADGRQSKCHYPLDDAGRPTL [P0AAG0]
A: 12 h

----------
Experiment: total protein half-life in vivo (active degradation + dilution); higher = more stable protein
Settings: E. coli NCM3722 delta-hslV; growth: N-lim chemostat; doubling time 6 h
property-measured: total protein half-life in vivo (h)
Unit h implied. Number only.

Recorded results for 2 sequences are shown here.
sequence | total protein half-life in vivo (h)
MDALSRLLMLNAPQGTIDKNCVLGSDWQLPHGAGELSVIRWHALTQGAAKLEMPTGEIFTLRPGNVVLLPQNSAHRLSHVDNESTCIVCGTLRLQHSARYFLTSLPETLFLAPVNHSVEYNWLREAIPFLQQESRSAMPGVDALCSQICATFFTLAVREWIAQVNTEKNILSLLLHPRLGAVIQQMLEMPGHAWTVESLASIAHMSRASFAQLFRDVSGTTPLAVLTKLRLQIAAQMFSRETLPVVVIAESVGYASESSFHKAFVREFGCTPGEYRERVRQLAP | 6.33
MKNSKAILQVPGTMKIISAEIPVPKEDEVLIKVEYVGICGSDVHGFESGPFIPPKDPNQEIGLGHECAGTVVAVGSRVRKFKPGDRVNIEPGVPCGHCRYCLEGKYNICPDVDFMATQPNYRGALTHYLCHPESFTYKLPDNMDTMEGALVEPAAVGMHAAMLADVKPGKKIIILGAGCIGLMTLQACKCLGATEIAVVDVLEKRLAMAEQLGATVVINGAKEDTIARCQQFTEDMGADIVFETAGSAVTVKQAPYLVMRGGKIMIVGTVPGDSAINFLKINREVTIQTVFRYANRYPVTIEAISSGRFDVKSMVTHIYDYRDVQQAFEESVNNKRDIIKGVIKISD | 2.93

Q: Bench note: what total protein half-life in vivo did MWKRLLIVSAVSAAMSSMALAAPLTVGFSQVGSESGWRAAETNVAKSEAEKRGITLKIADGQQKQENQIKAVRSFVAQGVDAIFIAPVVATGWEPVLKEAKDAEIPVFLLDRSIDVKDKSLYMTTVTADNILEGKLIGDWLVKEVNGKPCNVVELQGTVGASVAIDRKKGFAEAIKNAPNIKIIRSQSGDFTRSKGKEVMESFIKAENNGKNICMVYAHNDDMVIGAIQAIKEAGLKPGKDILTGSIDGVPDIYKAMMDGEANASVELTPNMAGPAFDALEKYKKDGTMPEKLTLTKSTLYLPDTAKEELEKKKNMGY show?
A: 6.13

Q: What does the data say about its total protein half-life in vivo? Entry: MKKNRAFLKWAGGKYPLLDDIKRHLPKGECLVEPFVGAGSVFLNTDFSRYILADINSDLISLYNIVKMRTDEYVQAARELFVPETNCAEVYYQFREEFNKSQDPFRRAVLFLYLNRYGYNGLCRYNLRGEFNVPFGRYKKPYFPEAELYHFAEKAQNAFFYCESYADSMARADDASVVYCDPPYAPLSATANFTAYHTNSFTLEQQAHLAEIAEGLVERHIPVLISNHDTMLTREWYQRAKLHVVKVRRSISSNGGTRKKVDELLALYKPGVVSPAKK [P0AEE8]
A: 5.84

Q: Please look up its total protein half-life in vivo: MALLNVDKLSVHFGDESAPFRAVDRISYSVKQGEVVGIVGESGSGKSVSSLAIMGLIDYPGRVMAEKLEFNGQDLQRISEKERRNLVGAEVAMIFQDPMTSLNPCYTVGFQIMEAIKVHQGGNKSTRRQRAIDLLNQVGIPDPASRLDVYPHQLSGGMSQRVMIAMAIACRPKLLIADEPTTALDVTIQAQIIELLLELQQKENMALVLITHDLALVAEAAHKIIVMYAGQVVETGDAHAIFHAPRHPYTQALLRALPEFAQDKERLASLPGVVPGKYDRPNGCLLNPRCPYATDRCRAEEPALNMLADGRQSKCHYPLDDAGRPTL [P0AAG0]
A: 6.21

----------
The sequences listed here are annotated with their total protein half-life in vivo.
Experiment: total protein half-life in vivo (active degradation + dilution); higher = more stable protein
Settings: wild type E. coli NCM3722; growth: N-lim chemostat; doubling time 6 h
// note: answer is a bare numeric in h

sequence | unit-name | meas-value
MIIYLHGFDSNSPGNHEKVLQLQFIDPDVRLISYSTRHPKHDMQHLLKEVDKMLQLNVDERPLICGVGLGGYWAERIGFLCDIRQVIFNPNLFPYENMEGKIDRPEEYADIATKCVTNFREKNRDRCLVILSRNDEALNSQRTSEELHHYYEIVWDEEQTHKFKNISPHLQRIKAFKTLG [P0A8E1] | h | 3.92
MKILVDENMPYARDLFSRLGEVTAVPGRPIPVAQLADADALMVRSVTKVNESLLAGKPIKFVGTATAGTDHVDEAWLKQAGIGFSAAPGCNAIAVVEYVFSSLLMLAERDGFSLYDRTVGIVGVGNVGRRLQARLEALGIKTLLCDPPRADRGDEGDFRSLDELVQRADILTFHTPLFKDGPYKTLHLADEKLIRSLKPGAILINACRGAVVDNTALLTCLNEGQKLSVVLDVWEGEPELNVELLKKVDIGTSHIAGYTLEGKARGTTQVFEAYSKFIGHEQHVALDTLLPAPEFGRITLHGPLDQPTLKRLVHLVYDVRRDDAPLRKVAGIPGEFDKLRKNYLERREWSSLYVICDDASAASLLCKLGFNAVHHPAR | h | 4.72

Q: So what's the measured total protein half-life in vivo for this one? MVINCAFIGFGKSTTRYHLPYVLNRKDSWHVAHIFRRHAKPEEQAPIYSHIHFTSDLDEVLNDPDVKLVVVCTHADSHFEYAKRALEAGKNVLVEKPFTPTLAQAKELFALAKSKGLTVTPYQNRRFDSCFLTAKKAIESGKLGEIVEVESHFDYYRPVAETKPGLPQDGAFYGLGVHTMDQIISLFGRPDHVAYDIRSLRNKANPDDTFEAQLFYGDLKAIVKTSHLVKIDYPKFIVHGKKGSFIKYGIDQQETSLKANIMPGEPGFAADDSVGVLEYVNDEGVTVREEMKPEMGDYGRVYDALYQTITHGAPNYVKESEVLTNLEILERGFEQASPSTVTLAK
A: 4.75
